- System: U-251
- test-protocol: NCI tumour cell line growth inhibition, 48 h
Calls of active or inactive are those of the source. No stated cut-off is given here; in the data, active = GI50 up to about 1.1 µM and inactive = higher.
// one of yes (1) = active, no (0) = inactive, no free text

Below are worked cases with known answers.
[
  {
    "molecule": "CC(C)[Si](OC12CCC(CC1O)CC2CO)(C(C)C)C(C)C (stereo not given)",
    "category": "no (0)"
  },
  {
    "molecule": "CC(C)(C)c1ccc(OCCOCCOc2ccc(C(C)(C)C)cc2S(=O)(=O)Nc2ccc([N+](=O)[O-])cc2)c(S(=O)(=O)Nc2ccc([N+](=O)[O-])cc2)c1",
    "category": "no (0)"
  },
  {
    "molecule": "COC(=O)C(C(=O)C(=O)Nc1ccccc1C(C)=O)c1nc2ccc(Cl)cc2nc1O (stereo not given)",
    "category": "no (0)"
  },
  {
    "molecule": "CCCCC/C=C1\\CCC(CN2CCOCC2)C1=O (stereo not given)",
    "category": "no (0)"
  },
  {
    "molecule": "OCc1ccn2c1[C@@H](O)CC2",
    "category": "no (0)"
  }
]

Tell me the assay call for `N#CCCN(CCN(C(=O)Nc1ccccc1)c1ccccc1)C(=O)Nc1ccccc1` please. no (0)

`Cc1c(C2=C(Br)C(=O)N(C)C2=O)c(=O)n(C)c(=O)n1C` , same question. no (0)

What about this molecule? O=C(O)CCC1NC(/C(=C/c2ccccc2O)NC(=O)c2ccccc2)OC1=O (stereo not given) no (0)

Note, next up: `CCCCCCN(CCCCCC)C(=S)N/N=C(\C)c1ccccn1` yes (1)

And the next one, COC1=CC(=O)C2[C@H]3Cc4ccccc4[C@H]3C2(C)C1=O (stereo not given in full) ? no (0)

---

- Test system: M14
- test-protocol: NCI tumour cell line growth inhibition, 48 h
The source made the active and inactive calls. Rule as the data show it: active = GI50 up to about 1.1 µM and inactive = higher.
measured-property: GI50

Solved cases below.
[
  {
    "compound": "C=Cc1cc2c(cc1O)CC[C@@H]1[C@@H]2CC[C@]2(C)[C@@H](O)CC[C@@H]12",
    "target-of-assay": "M14",
    "GI50": "5.4 µM (inactive)"
  },
  {
    "compound": "COc1ccc2[nH]c3c(c2c1)CCn1c-3nc2ccccc2c1=O",
    "target-of-assay": "M14",
    "GI50": "> 25 µM (inactive)"
  },
  {
    "compound": "CC1=NN(c2nc(N)nc(/C(C#N)=C\\c3ccc(-c4ccc([N+](=O)[O-])cc4)o3)n2)C(C)(C)C1",
    "target-of-assay": "M14",
    "GI50": "> 100 µM (inactive)"
  }
]

If you can, please state the reported GI50 value of COc1ccc(C2c3c(-c4ccccc4)nn(-c4ccccc4)c3Oc3ncn(N)c(=N)c32)cc1OC (centres undefined) . 2.04 µM (inactive)

# iterate: `O/N=N/c1ccc(Sc2ccc(/N=N/O)cn2)nc1` > 100 µM (inactive)

Next entry: O=C1C2Cc3c(n(C(=O)c4ccccc4)c4ccccc34)CC2C(=O)N1c1ccc(Nc2ccc(N3C(=O)C4Cc5c(n(C(=O)c6ccccc6)c6ccccc56)CC4C3=O)cc2)cc1 (centres undefined) 30.9 µM (inactive)

Quick one: `O=P12N(CCN1c1ccccc1)CCN2c1ccccc1` 66.8 µM (inactive)

Similarly, C[C@]12CC/C(=N\OCCN3CCCCC3)C=C1CCC1C2CC[C@@]2(C)C1CC[C@]2(C)O (some centres undefined) ? 14.2 µM (inactive)
